# Tested on: MCF7
# Method: NCI tumour cell line growth inhibition, 48 h
The source made the active and inactive calls. No stated cut-off is given here; in the data, active = GI50 up to about 1.1 µM and inactive = higher.
Reply using exactly one outcome from TRUE for active, FALSE for inactive

Use the examples below as a reference point.
COc1ccc(N2C(=O)C3c4[nH]c5ccc(Br)cc5c4C4CCC(C(C)(C)C)CC4C3C2=O)cc1 (stereo not given)    FALSE
COc1cc2nc3n(c(=O)c2cc1OC)-c1ccc([N+](=O)[O-])cc1C3=O    FALSE
CC(=O)[C@H]1CC[C@H]2[C@@H]3CCC4=CC(=O)CC[C@]4(C)[C@H]3CC[C@]12C [PROGESTERONE]    FALSE
C[C@@H]1CC[C@]2(C)C3(C)CC[C@]2(OC3=O)[C@@]12CC(c1ccoc1)OC2=O (stereo not given in full)    FALSE

Dear all, I need the recorded test outcome for CO[C@H]1Nc2c(ccc(C)c2O)C(=O)N2C=C(/C=C/C(N)=O)C[C@@H]12 [ANTHRAMYCIN METHYL ETHER] , thank you.
TRUE

Dear all, I need the recorded test outcome for CCOC(=S)SSSC(=S)OCC , thank you.
FALSE

Dear all, I need the recorded test outcome for COc1cccc2c1C(=O)c1c(O)c3c(c(O)c1C2=O)C[C@@](O)(C(=O)CO)C[C@@H]3OC1CC(N)C(O)C(C)O1 (stereo not given in full) , thank you.
TRUE

Dear all, I need the recorded test outcome for CCN(CC)Cc1cc(Nc2c3ccccc3nc3c2[nH]c2ccccc23)cc(CN(CC)CC)c1O , thank you.
FALSE

Dear all, I need the recorded test outcome for ClCCCc1ccccc1C1=NCCc2ccccc21 , thank you.
FALSE

Dear all, I need the recorded test outcome for CC1=CC(=O)/C(=C/NC(N)=S)C(=O)O1 , thank you.
FALSE

Cited source for all entries: ChEMBL document CHEMBL1201862
